System: RGS4
Test: FCPIA: Gαo binding to RGS4
Reported conditions: Table 3
Catalogue of RGS4 Hill Slope values
// no unit, no text: just the number

Compound | Recorded value
Cc1ccc(Cn2sc(=O)n(Cc3ccc(C)cc3)c2=O)cc1 [S13] | −0.92

input: Write RGS4 Hill Slope of Cc1cccc(Cn2c(=O)sn(-c3ccccc3)c2=O)c1 [S19] ; system used: RGS4
output: −1.65

input: Write RGS4 Hill Slope of CC(C)(C)c1ccc(-n2sc(=O)n(Cc3ccccc3)c2=O)cc1 [S3] ; system used: RGS4
output: −1.79

input: Write RGS4 Hill Slope of Cc1ccc(-n2sc(=O)n(C)c2=O)cc1 [CCG-203759] ; system used: RGS4
output: −1.56

====

Experimental system: RGS4
Test: FCPIA: Gαo binding to RGS4
Reported conditions: Table 2, mean of two independent FCPIA experiments; read-out: RGS4 IC50
Metric: IC50 (µM)
The reply should contain only the number, in µM.

input: Answer with reported IC50 of Cc1ccc(C2=CC(=O)N(Cc3ccccc3)C2=O)cc1 [CCG-203779]
output: 93

====

System: RGS4
Test: FCPIA: Gαo binding to RGS4
Reported conditions: Table 3
Label Yes for high-side RGS4 Hill Slope (at or above -1) and No for low-side RGS4 Hill Slope (below it).

The following molecules have reported results that may help.
Molecule | Label
O=c1sn(-c2ccc(Cl)cc2)c(=O)n1Cc1ccccc1 [CCG-203723] | No
O=c1sn(-c2ccc(Cl)c(Cl)c2)c(=O)n1Cc1ccccc1 [CCG-203725] | No
Cc1ccc(Cn2c(=O)sn(-c3ccc(Cl)cc3)c2=O)cc1 [S10] | No

input: Hello, I need to know if CC(C)(C)c1ccc(Cn2c(=O)sn(-c3ccccc3)c2=O)cc1 [S35] has measured RGS4 Hill Slope not below -1. Thanks!
output: No

input: Hello, I need to know if Cc1ccc(Cn2sc(=O)n(Cc3ccc(F)cc3)c2=O)cc1 [CCG-203742] has measured RGS4 Hill Slope not below -1. Thanks!
output: No

input: Hello, I need to know if COc1ccc(-n2sc(=O)n(Cc3ccc(Cl)cc3)c2=O)cc1 [S6] has measured RGS4 Hill Slope not below -1. Thanks!
output: No

input: Hello, I need to know if CC(C)(C)c1ccc(Cn2c(=O)sn(-c3ccc(C(C)(C)C)cc3)c2=O)cc1 [S36] has measured RGS4 Hill Slope not below -1. Thanks!
output: No

====

Experimental system: UniProt P49798
Sequence (P49798 whole entry, looked up): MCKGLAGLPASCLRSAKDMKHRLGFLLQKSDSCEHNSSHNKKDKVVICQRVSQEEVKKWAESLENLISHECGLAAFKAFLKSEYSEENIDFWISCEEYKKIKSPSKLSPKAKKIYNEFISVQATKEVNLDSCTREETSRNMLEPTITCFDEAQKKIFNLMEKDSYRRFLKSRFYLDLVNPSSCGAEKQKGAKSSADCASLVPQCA
Test: FCPIA: Gαo binding to RGS4
Metric: Fold Selectivity (R8/R4)

Smiles notation | Recorded value
Cc1cccc(-n2sc(=O)n(Cc3ccccc3)c2=O)c1 | 561
CCCCn1sc(=O)n(CC(C)C)c1=O | 2513
O=c1sn(-c2ccc(Cl)cc2)c(=O)n1Cc1ccc(F)cc1 | 543

Please find the next compound below.
input: Answer with reported Fold Selectivity (R8/R4) of Cc1ccc(-n2sc(=O)n(Cc3ccccc3)c2=O)cc1
output: 536

====

Experimental system: RGS8 (Homo sapiens (Human), UniProt P57771)
Sequence (P57771 other isoform, or with tags, fused parts or gaps): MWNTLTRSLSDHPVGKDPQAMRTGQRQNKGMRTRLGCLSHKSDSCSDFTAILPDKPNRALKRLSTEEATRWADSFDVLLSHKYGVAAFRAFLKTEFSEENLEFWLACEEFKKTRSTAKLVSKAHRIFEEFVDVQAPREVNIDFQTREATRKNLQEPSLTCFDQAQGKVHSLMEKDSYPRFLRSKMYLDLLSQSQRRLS
Test: FCPIA: Gαo binding to RGS8
Reported conditions: Table 6, FCPIA; read-out: RGS8 IC50
Catalogue of IC50 values
The reply should contain only the number, in µM.

Smiles notation | Experimental system | Metric | Units symbol | Recorded value
Cc1cccc(-n2sc(=O)n(Cc3cccc(Cl)c3)c2=O)c1 | RGS8 (Homo sapiens (Human), UniProt P57771) | IC50 | µM | 10.1

input: Answer with reported IC50 of O=c1sn(-c2cccc(C(F)(F)F)c2)c(=O)n1Cc1cccc(Cl)c1
output: 16.2

input: Answer with reported IC50 of O=c1sn(-c2ccccc2)c(=O)n1Cc1ccc(Cl)c(Cl)c1
output: 7.5

input: Answer with reported IC50 of COc1ccc(Cn2c(=O)sn(-c3ccc(Cl)c(Cl)c3)c2=O)cc1
output: 36

====

Experimental system: RGS4
Test: FCPIA: Gαo binding to RGS4
Reported conditions: Table 3, duplex FCPIA, average of two experiments; read-out: RGS4 IC50
Catalogue of pIC50 values
Please report pIC50 as the negative decimal logarithm of the molar concentration, giving only the number.

Solved cases below.
Compound | pIC50
O=c1sn(-c2cccc(C(F)(F)F)c2)c(=O)n1Cc1ccc(F)cc1 [CCG-203775] | 7.10
O=c1sn(-c2cccc(C(F)(F)F)c2)c(=O)n1Cc1ccccc1 [CCG-203772] | 7.24

input: Answer with reported pIC50 of CCCCn1sc(=O)n(CCCC)c1=O [CCG-203770]
output: 7.52

input: Answer with reported pIC50 of Cc1ccc(-n2sc(=O)n(Cc3cccc(Cl)c3)c2=O)cc1 [CCG-203777]
output: 7.77

input: Answer with reported pIC50 of O=c1sn(-c2ccc(Cl)cc2)c(=O)n1Cc1ccccc1 [CCG-203723]
output: 7.54

====

Experimental system: PLCβ3 (Homo sapiens (Human), UniProt Q01970)
Sequence (Q01970 whole entry, species assumed): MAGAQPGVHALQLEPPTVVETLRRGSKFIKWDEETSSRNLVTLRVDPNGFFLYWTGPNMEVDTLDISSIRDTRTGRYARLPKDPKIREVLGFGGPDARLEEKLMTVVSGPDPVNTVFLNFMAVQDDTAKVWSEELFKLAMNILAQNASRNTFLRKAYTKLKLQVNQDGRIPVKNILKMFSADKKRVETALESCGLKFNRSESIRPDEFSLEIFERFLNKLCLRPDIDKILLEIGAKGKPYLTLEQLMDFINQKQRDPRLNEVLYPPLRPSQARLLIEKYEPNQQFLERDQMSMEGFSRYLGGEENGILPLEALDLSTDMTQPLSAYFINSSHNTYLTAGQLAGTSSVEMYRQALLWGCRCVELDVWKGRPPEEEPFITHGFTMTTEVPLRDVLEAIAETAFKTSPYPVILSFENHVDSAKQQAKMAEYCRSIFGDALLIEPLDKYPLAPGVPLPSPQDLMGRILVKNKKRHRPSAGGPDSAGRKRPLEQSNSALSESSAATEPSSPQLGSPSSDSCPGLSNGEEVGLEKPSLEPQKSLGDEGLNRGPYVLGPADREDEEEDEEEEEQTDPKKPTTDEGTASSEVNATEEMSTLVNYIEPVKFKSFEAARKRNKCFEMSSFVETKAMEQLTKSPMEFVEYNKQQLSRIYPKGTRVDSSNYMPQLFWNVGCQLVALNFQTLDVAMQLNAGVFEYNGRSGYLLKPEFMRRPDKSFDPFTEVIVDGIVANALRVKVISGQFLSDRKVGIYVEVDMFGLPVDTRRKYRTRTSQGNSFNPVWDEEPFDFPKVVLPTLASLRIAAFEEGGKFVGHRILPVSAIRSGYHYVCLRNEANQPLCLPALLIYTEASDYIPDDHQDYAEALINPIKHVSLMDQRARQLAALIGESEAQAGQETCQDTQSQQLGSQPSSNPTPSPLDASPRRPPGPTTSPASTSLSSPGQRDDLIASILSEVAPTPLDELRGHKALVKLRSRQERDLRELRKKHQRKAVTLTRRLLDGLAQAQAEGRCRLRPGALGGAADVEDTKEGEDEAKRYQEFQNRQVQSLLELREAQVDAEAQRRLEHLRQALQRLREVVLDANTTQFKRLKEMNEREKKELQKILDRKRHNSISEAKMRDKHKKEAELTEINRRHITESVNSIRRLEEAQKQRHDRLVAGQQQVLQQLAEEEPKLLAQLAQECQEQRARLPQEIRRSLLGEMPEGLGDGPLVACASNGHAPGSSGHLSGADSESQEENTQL
Test: PLCβ inhibition assay
Type: biochemical
Reported conditions: Table 7
Protocol: PLCβ inhibition assay: Lipid vesicles containing 200 μM phosphatidylethanolamine, 50 μM PIP2 (Avanti Polar Lipids), and ˜4000-8000 cpm [^3H]-labeled PIP2 (Perkin-Elmer) per assay were generated by combining the lipids in a borosilicate glass tube and drying the mixture under a stream of nitrogen. Dried lipids were resuspended in 50 mM HEPES pH 7, 80 mM KCl, 2 mM EGTA and 1 mM DTT using a bath sonicator. […]
Metric: IC50

input: Answer with reported IC50 of CCCCn1c(=O)sn(CC)c1=O
output: > 100 µM

====

Experimental system: RGS8 (Homo sapiens (Human), UniProt P57771)
Test: FCPIA: Gαo binding to RGS8
Reported conditions: Table 3
Binary label based on RGS8 Hill Slope with cut-off -0.9: below gives condition met, not below gives condition not met.

Smiles notation | Experimental system | Label
COc1ccc(-n2sc(=O)n(Cc3ccc(Cl)c(Cl)c3)c2=O)cc1 | RGS8 (Homo sapiens (Human), UniProt P57771) | condition not met
Cc1cccc(Cn2c(=O)sn(-c3ccccc3)c2=O)c1 | RGS8 (Homo sapiens (Human), UniProt P57771) | condition met
COc1ccc(Cn2c(=O)sn(-c3ccc(OC)cc3)c2=O)cc1 | RGS8 (Homo sapiens (Human), UniProt P57771) | condition not met
Cc1ccc(Cn2c(=O)sn(-c3ccccc3)c2=O)cc1 | RGS8 (Homo sapiens (Human), UniProt P57771) | condition not met

Here is another compound to look at.
input: # strict comparison: is reported RGS8 Hill Slope < -0.9? input = CCCCn1sc(=O)n(C)c1=O
output: condition met

====

Experimental system: UniProt:P57771
Test: FCPIA: Gαo binding to RGS8
Reported conditions: Table 7; read-out: IC50 (μM), RGS8
Metric: IC50 (µM)
The reply should contain only the number, in µM.

input: Write IC50 of CCCCn1c(=O)sn(CC)c1=O [CCG-203769] ; system used: UniProt:P57771
output: 79

====

Experimental system: RGS8 (Homo sapiens (Human), UniProt P57771)
Test: FCPIA: Gαo binding to RGS8
Reported conditions: Table 3
Binary label based on RGS8 Hill Slope with cut-off -0.7: below gives T, not below gives F.

The following compounds have reported results that may help.
Compound | Experimental system | Label
COc1ccc(-n2sc(=O)n(Cc3ccc(F)cc3)c2=O)cc1 [CCG-203735] | RGS8 (Homo sapiens (Human), UniProt P57771) | T
Cc1ccc(Cn2sc(=O)n(Cc3ccc(Cl)cc3)c2=O)cc1 [S8] | RGS8 (Homo sapiens (Human), UniProt P57771) | F
COc1ccc(Cn2c(=O)sn(-c3ccc(Cl)cc3)c2=O)cc1 [S25] | RGS8 (Homo sapiens (Human), UniProt P57771) | T
CCCCn1sc(=O)n(Cc2ccc(F)cc2)c1=O [CCG-203765] | RGS8 (Homo sapiens (Human), UniProt P57771) | F
COc1ccc(Cn2c(=O)sn(-c3ccccc3)c2=O)cc1 [S24] | RGS8 (Homo sapiens (Human), UniProt P57771) | T
CC(C)Cn1c(=O)sn(C(C)(C)C)c1=O [CCG-203763] | RGS8 (Homo sapiens (Human), UniProt P57771) | F
COc1ccc(-n2sc(=O)n(Cc3ccc(Cl)cc3)c2=O)cc1 [S6] | RGS8 (Homo sapiens (Human), UniProt P57771) | T
O=c1sn(-c2cccc(Cl)c2)c(=O)n1Cc1cccc(Cl)c1 [S17] | RGS8 (Homo sapiens (Human), UniProt P57771) | T
O=c1sn(-c2ccc(Cl)cc2)c(=O)n1Cc1ccc(F)cc1 [CCG-203727] | RGS8 (Homo sapiens (Human), UniProt P57771) | T

input: # strict comparison: is reported RGS8 Hill Slope < -0.7? input = O=c1sn(-c2ccc(Cl)cc2)c(=O)n1Cc1ccc(Cl)c(Cl)c1 [S30]
output: T

This collection of values is drawn from patent US8865750B2.
